- System: Plasmodium falciparum Dd2 asexual blood stage parasites
- TEST_METHOD_NOTES: microbe, parasite or virus in culture
- Parameters: species or system Plasmodium falciparum Dd2 in human erythrocytes; single determination (one 11-point concentration-response curve)
- MEASUREMENT_PARAMETERS: Plasmodium falciparum, DD2, Erythrocyte, 72 h; read-out: AC50
The label is 1 (yes) for AC50 below 5 µM and 0 (no) for AC50 equal to or exceeding 5 µM.

COc1cc(C)cc(CN2CCC(Cc3ccccc3)CC2)c1O [MLS001178265-01]; 1 (yes)

hey, is AC50 for Nc1nonc1-n1nnc(C(=O)N/N=C/c2ccc(Cl)cc2)c1-c1ccc2c(c1)OCO2 [MLS001142698-01] lower than 5 µM or not?
1 (yes)

Subsequent entry: CN1CCN(c2ccc(NC(=O)c3ccc(-c4cccc([N+](=O)[O-])c4)o3)cc2)CC1 [MLS000663772-01]
1 (yes)

Subsequent entry: c1ccc2cc3c(NCCN4CCOCC4)ccnc3cc2c1 [MLS000702892-01]
1 (yes)

Subsequent entry: Cc1cc(C)n(CC(O)COc2ccccc2)n1 (stereo not shown) [MLS000525359-01]
0 (no)

Subsequent entry: CC(C)(C)c1ccc(CN(Cc2ccccc2)C(c2ccccn2)c2nnnn2C(C)(C)C)cc1 (stereo not shown) [MLS000529130-01]
1 (yes)

Subsequent entry: CCOc1ccc(NC2=C(OC)C(=O)c3ccccc3C2=O)cc1 [MLS000588108-01]
1 (yes)

Subsequent entry: COc1cc(Br)c(C(C)NC(=O)c2cccc(Br)c2)cc1OC (stereo not shown) [MLS000325399-01]
1 (yes)

Subsequent entry: Cc1ccc(C)c(N2CCN(CCCNC(=O)c3cnn(-c4cccc(Cl)c4)c3C3CCN(C(=O)OC(C)(C)C)CC3)CC2)c1 [NCGC00126914-01]
0 (no)

Subsequent entry: O=C1CC(c2ccccc2)N(Cc2ccncc2)CCCN([S+](=O)([O-])c2cccc(F)c2)CCN1 (stereo not shown) [NCGC00467202-01]
1 (yes)

---

Reported AC50 values for a set of compounds
- System: Plasmodium falciparum Dd2-attB (parental line), asexual blood stages
- Construct: Dd2-attB, the isogenic parental line
- TEST_METHOD_NOTES: microbe, parasite or virus in culture
- Set-up: species or system P. falciparum Dd2-attB in human erythrocytes; SYBR Green-I proliferation assay, Dd2-attB parental line, asexual blood stages
- MEASUREMENT_PARAMETERS: Plasmodium falciparum, DD2, Erythrocyte, 72 h, read-out: Calculated / Average Log AC50 (M), mean of replicates, 72 h (converted)
Supply the numeric figure in M, leaving out any unit text.

Illustrative cases are given below, each with its answer.
COc1cccc(NCc2ccc(O)c3ncccc23)n1; 1.13e-05
Oc1ccc(/C=C/c2c(F)cccc2F)c2cccnc12; 1e-05
O=C(NC1CCN(c2cc(-c3ccc(Cl)cc3)n[nH]2)C1)c1ccccc1 (centres unmarked); 1.85e-05
Oc1ccc(CNc2cc(C(F)(F)F)ccn2)c2cccnc12; 1e-05
O=C(NC1=CC(=O)c2ccccc2C1=O)c1ccccc1; 3.56e-06
O=C(O)c1ccnc2cc(C(OCCN3CCCCC3)c3ccccc3Cl)[nH]c12 (centres unmarked); 1.89e-05
O=C(Cc1ccc(O)cc1)N1CCC2(C1)CN(c1ccccc1)C2; 1.26e-05
Oc1ccc(CNc2ccccc2F)c2cccnc12; 1.22e-05
CC(NCCN1CCCCC1)c1cnn(-c2cc(CO)ccn2)c1-c1cccc(-c2ccccc2)c1 (centres unmarked); 3.99e-06
O=C(NCCCCN1CCOCC1)c1cccc(-c2cc(O)c3ncccc3c2)c1; 7.97e-06

Item under review: `CCOC(=O)c1ccnc(-c2ncn(C)c2-c2ccc(OC)cc2)c1` . Reported AC50?
8.94e-06

Subsequent entry: `O=C(O)c1ccnc2c(O)cccc12`
2e-05

Subsequent entry: CCOC(=O)c1ccc(O)c2ncc(NCC3CCCN(CCc4ccccc4)C3)cc12 (centres unmarked)
8.28e-06

Subsequent entry: `O=C(O)c1ccc(O)c2ncc(N3CCOCC3)cc12`
1.65e-05
